Assay: Solubility of the compound in PBS buffer of pH 7.0
Type: physicochemical
Assay metric: solubility (µg/mL)
Return type: number; implicit unit µg/mL.

# get_value(readout='solubility', item= CN1CCN(c2ccc(-c3c(-c4cc(F)c(O)c(F)c4)cnc4[nH]ccc34)cc2)CC1 )
10.3

* * *

Catalogue of log10 IC50 readings, one per entry.
Target: Ribosomal protein S6 kinase alpha-3 (Homo sapiens)
Sequence (P51812 whole entry): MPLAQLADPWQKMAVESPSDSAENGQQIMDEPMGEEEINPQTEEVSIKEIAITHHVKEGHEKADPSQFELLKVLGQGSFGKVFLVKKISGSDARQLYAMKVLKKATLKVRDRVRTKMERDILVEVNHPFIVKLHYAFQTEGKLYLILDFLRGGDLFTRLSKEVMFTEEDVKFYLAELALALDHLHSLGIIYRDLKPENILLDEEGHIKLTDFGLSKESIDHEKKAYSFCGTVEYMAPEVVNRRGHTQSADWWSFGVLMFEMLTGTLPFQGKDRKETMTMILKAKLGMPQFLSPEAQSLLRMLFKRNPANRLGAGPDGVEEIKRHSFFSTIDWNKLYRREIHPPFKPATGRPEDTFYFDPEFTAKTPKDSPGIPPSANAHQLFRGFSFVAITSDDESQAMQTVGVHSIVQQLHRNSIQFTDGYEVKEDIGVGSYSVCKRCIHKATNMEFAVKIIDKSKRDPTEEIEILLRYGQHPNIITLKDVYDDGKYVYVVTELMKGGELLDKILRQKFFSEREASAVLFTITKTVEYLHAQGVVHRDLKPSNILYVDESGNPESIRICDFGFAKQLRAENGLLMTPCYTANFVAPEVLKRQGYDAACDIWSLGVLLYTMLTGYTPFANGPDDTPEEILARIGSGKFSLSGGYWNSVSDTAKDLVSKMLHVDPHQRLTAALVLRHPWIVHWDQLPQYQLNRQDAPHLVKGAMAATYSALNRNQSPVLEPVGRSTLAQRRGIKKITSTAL
Assay: Inhibition of RSK2 (unknown origin)
Short version: log10 scale, IC50, nM.

Known results for compounds:
COc1c(F)cc(-c2cnc3[nH]ccc3c2-c2ccc(N3CCN(C)CC3)cc2)cc1F = 2.70
CN1CCN(c2ccc(-c3c(-c4cn[nH]c4)cnc4[nH]ccc34)cc2)CC1 = 2.38
CN1CCN(c2ccc(-c3c(-c4ccc(F)cc4)cnc4[nH]ccc34)cc2)CC1 = 3.28
Oc1ccc(-c2cn[nH]c2-c2ccc(O)cc2)cc1 = 1.30

Let us examine a further case.
# get_value(readout='log10 IC50', item= CN1CCN(c2ccc(-c3c(-c4ccc(C(F)F)cc4)cnc4[nH]ccc34)cc2)CC1 )
2.90

* * *

Biological target: UniProt P51812
Assay: Inhibition of RSK2 (unknown origin) assessed as reduction in YB1 […] phosphorylation
pIC50: −log10 of the molar value.
Catalogue of pIC50 readings, one per entry.

CN1CCN(c2ccc(-c3c(-c4ccc(F)cc4)cnc4[nH]ccc34)cc2)CC1 = < 4.70
CN1CCN(c2ccc(-c3c(-c4ccnc(F)c4)cnc4[nH]ccc34)cc2)CC1 = < 4.70

Let us examine a further case.
# get_value(readout='pIC50', item= COc1c(F)cc(-c2cnc3[nH]ccc3c2-c2ccc(N3CCN(C)CC3)cc2)cc1F )
< 4.70

src = ChEMBL document CHEMBL4265896
